# Lookup of reported pIC50 keyed by entry
# Tested on: murine L1210 leukemia cells
# Protocol conditions: read-out: Mouse Leukemia L1210 IC50; cells counted after 24 hours of growth
pIC50: −log10 of the molar value. Where a SMILES comes first, the peptide text is derived from it. [ ]: non-standard residue; d: D form. The star is where a group is joined. X1 = COC1=CC(=O)N(C(=O)[C@@H](O*)C(C)C)[C@H]1Cc1ccccc1; NMe2Val = CC(C)[C@@H](C(=O)*)N(C)C; NHPhenethyl = c1ccc(CCN*)cc1; NMeV = CN[C@H](C(=O)O)C(C)C; Hiv = CC(C)[C@H](O)C(=O)O; NHBn = c1ccc(CN*)cc1; X6 = Fc1ccc(CCN*)cc1

Molecule | pIC50
COC1=CC(=O)N(C(=O)[C@@H](OC(=O)[C@@H]2CCCN2C(=O)[C@@H]2CCCN2C(=O)[C@H](C(C)C)N(C)C(=O)[C@@H](NC(=O)[C@H](C(C)C)N(C)C)C(C)C)C(C)C)[C@H]1Cc1ccccc1 [Compound 1, dolastatin 15] (NMe2Val-V[NMeV]PP-X1) | 8.40
CC(C)[C@H](NC(=O)[C@H](C(C)C)N(C)C)C(=O)N(C)[C@H](C(=O)N1CCC[C@H]1C(=O)N1CCC[C@H]1C(=O)O[C@H](C(=O)NCCc1ccccc1)C(C)C)C(C)C [Compound 12c] (NMe2Val-V[NMeV]PP[Hiv]-NHPhenethyl) | 8.70
CC(C)[C@H](NC(=O)[C@H](C(C)C)N(C)C)C(=O)N(C)[C@H](C(=O)N1CCC[C@H]1C(=O)N1CCC[C@H]1C(=O)O[C@H](C(=O)NCCc1ccc(F)cc1)C(C)C)C(C)C [Compound 12d] (NMe2Val-V[NMeV]PP[Hiv]-X6) | 8.40
COC(=O)[C@H](CCSC)NC(=O)[C@@H](OC(=O)[C@@H]1CCCN1C(=O)[C@@H]1CCCN1C(=O)[C@H](C(C)C)N(C)C(=O)[C@@H](NC(=O)[C@H](C(C)C)N(C)C)C(C)C)C(C)C [Compound 12n] (NMe2Val-V[NMeV]PP[Hiv]M-OMe) | 8.52
CC(C)[C@H](NC(=O)[C@H](C(C)C)N(C)C)C(=O)N(C)[C@H](C(=O)N1CCC[C@H]1C(=O)N1CCC[C@H]1C(=O)O[C@H](C(=O)NCc1ccccc1)C(C)C)C(C)C [Compound 12b] (NMe2Val-V[NMeV]PP[Hiv]-NHBn) | 9.00

* * *

# Tested on: murine L1210 leukemia cells
# Protocol conditions: read-out: Mouse Leukemia L1210 IC50; cells counted after 24 hours of growth
# Description: All compounds synthesized were first evaluated for in vitro antitumor activity against murine P388 lymphocytic leukemia cells and against murine L1210 leukemia cells and human CA46 Burkitt lymphoma cells using techniques described by Hamel & Lin (see: HAMEL, E., and LIN, C. M., […], Interaction of combretastatin, a new plant-derived antimitotic agent, with tubulin, Biochemical Pharmacology, 32, 3864). […]
pIC50: −log10 of the molar value. Where a SMILES comes first, the peptide text is derived from it. [ ]: non-standard residue; d: D form. The star is where a group is joined. NH(2-(2-pyridyl)ethyl) = c1ccc(CCN*)nc1; NH(4-Br-phenethyl) = Brc1ccc(CCN*)cc1; NMe2Val = CC(C)[C@@H](C(=O)*)N(C)C; X5 = O=[N+]([O-])c1ccc(CCN*)cc1; NMeV = CN[C@H](C(=O)O)C(C)C; Hiv = CC(C)[C@H](O)C(=O)O

Compound | pIC50
COC(=O)[C@@H]1CCCN1C(=O)[C@@H](OC(=O)[C@@H]1CCCN1C(=O)[C@@H]1CCCN1C(=O)[C@H](C(C)C)N(C)C(=O)[C@@H](NC(=O)[C@H](C(C)C)N(C)C)C(C)C)C(C)C [Compound 12o] (NMe2Val-V[NMeV]PP[Hiv]P-OMe) | 8.40
CC(C)[C@H](NC(=O)[C@H](C(C)C)N(C)C)C(=O)N(C)[C@H](C(=O)N1CCC[C@H]1C(=O)N1CCC[C@H]1C(=O)O[C@H](C(=O)NCCc1ccccn1)C(C)C)C(C)C [Compound 12k] (NMe2Val-V[NMeV]PP[Hiv]-{NH(2-(2-pyridyl)ethyl)}) | 8.40
CC(C)[C@H](NC(=O)[C@H](C(C)C)N(C)C)C(=O)N(C)[C@H](C(=O)N1CCC[C@H]1C(=O)N1CCC[C@H]1C(=O)O[C@H](C(=O)NCCc1ccc(Br)cc1)C(C)C)C(C)C [Compound 12h] (NMe2Val-V[NMeV]PP[Hiv]-{NH(4-Br-phenethyl)}) | 8.70
CC(C)[C@H](NC(=O)[C@H](C(C)C)N(C)C)C(=O)N(C)[C@H](C(=O)N1CCC[C@H]1C(=O)N1CCC[C@H]1C(=O)O[C@H](C(=O)NCCc1ccc([N+](=O)[O-])cc1)C(C)C)C(C)C [Compound 12i] (NMe2Val-V[NMeV]PP[Hiv]-X5) | 8.40

Source of measurements: patent US6686445B1
